Test system: HT-22 cells
measurement-description: Protection against cell death (cell viability) induced by glutamate in HT-22 cells
Format: cell-based
condition-context: Mus musculus; glutamate, HT-22 cells; read-out: Protection against cell death (EC50)
metric: EC50 (nM)
A number alone suffices; assume nM.

Sample answers from the record:
[[record]]
molecule = "CN(C)CCCN1c2ccccc2Sc2ccc(Cl)cc21 [chlorpromazine]"
metric = "EC50"
measured = 2190

[[record]]
molecule = "Clc1ccc2c(c1)Nc1ccccc1S2 [2-chlorophenothiazine]"
metric = "EC50"
measured = 4.57

[[record]]
molecule = "CC(CN1c2ccccc2Sc2ccccc21)N(C)C (stereo not drawn) [promethazine]"
metric = "EC50"
measured = 2060

[[record]]
molecule = "C1=Cc2ccccc2Nc2ccccc21 [Iminostilbene]"
metric = "EC50"
measured = 189

[[record]]
molecule = "CN(C)CCCN1c2ccccc2CCc2ccccc21 [impramine]"
metric = "EC50"
measured = 51900


Please look at the following molecule next.
In: Provide the documented EC50 with HT-22 cells as the system for CN(C)c1ccc2nc3ccc(=[N+](C)C)cc-3sc2c1 [methylene blue]
Out: 18.8

---

System: HT-22 cells
measurement-description: Protection against cell death (cell viability) induced by glutamate in HT-22 cells
Type: cell-based
condition-context: Mus musculus, HT-22, read-out: Protection against cell death (EC50)
metric: EC50 (nM)
A number alone suffices; assume nM.

In: Return reported EC50; argument: c1ccc2c(c1)Nc1ccccc1S2
Out: 19

---

System: HT-22 cells
measurement-description: Protection against ROS production induced by glutamate in HT-22 cells
Type: cell-based
# pEC50 per record follows
Notebook: values listed as pEC50 are -log10 of the concentration (mol/L).

[[record]]
compound_structure = "Cc1cc2nc3ccc(N(C)C)cc3nc2cc1N.Cl"
measured = 4.80


Please look at the following compound next.
In: Return reported pEC50; argument: Cc1cc2nc3ccc(N(C)C)cc3[s+]c2cc1N
Out: 9.97

---

# pEC50 per record follows
System: HT-22 cells
measurement-description: Protection against cell death (cell viability) induced by glutamate in HT-22 cells
Assay type: cell-based
condition-context: glutamate, HT-22 cells; read-out: Protection against cell death (EC50)
Notebook: values listed as pEC50 are -log10 of the concentration (mol/L).

[[record]]
compound_structure = "Cc1cc2nc3ccc(N(C)C)cc3nc2cc1N.Cl"
target_or_system = "HT-22 cells"
measured = 5.23


Please look at the following molecule next.
In: Return reported pEC50; argument: Cc1cc2nc3ccc(N(C)C)cc3[s+]c2cc1N
Out: 8.76
